study-system: T1, human TL1A extracellular domain with N-terminal HIS and FLAG tag (human, UniProt O95150 72-251)
T1 construct: whole entry named. ~70 kDa fraction purified by gel filtration
T1 sequence: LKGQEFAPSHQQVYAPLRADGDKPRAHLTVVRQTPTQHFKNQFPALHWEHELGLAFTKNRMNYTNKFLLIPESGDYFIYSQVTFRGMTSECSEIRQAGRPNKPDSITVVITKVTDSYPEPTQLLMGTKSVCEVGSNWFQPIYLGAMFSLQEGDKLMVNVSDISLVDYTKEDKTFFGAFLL
assay-details: SPR run 2; purified antibody on Protein A; TL1A 10 ug/mL; timepoint 590

binder: 320-203 (antibody, human IgG1, name in Kabat numbering, V domains shown, human IgG1, lambda) VH: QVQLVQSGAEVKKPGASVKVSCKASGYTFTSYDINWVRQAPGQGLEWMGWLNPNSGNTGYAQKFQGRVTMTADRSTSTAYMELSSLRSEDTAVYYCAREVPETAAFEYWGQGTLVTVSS VL: QSVLTQPPSVSGAPGQRVTISCTDSSSDIGAGLGVHWYQQLPGTAPKLLIEGYYNRPSGVPDRFSGSKSGTSASLTITGLLPEDEGDYYCQSYDGTLSALFGGGTKLTVLG
TL1A Binding Level (Late), RU: 35
//
binder: 320-213 (antibody, human IgG1, name in Kabat numbering, V domains shown, human IgG1, lambda) VH: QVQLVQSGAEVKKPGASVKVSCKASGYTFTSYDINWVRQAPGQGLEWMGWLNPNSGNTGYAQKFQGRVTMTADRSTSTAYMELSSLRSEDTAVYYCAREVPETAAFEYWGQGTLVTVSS VL: QSVLTQPPSVSGAPGQRVTISCTSKSSDIGAGLGVHWYQQLPGTAPKLLIEGYYNRPSGVPDRFSGSKSGTSASLTITGLLPEDEGDYYCQSYDGTLSALFGGGTKLTVLG
TL1A Binding Level (Late), RU: 65
//
binder: 320-211 (antibody, human IgG1, name in Kabat numbering, V domains shown, human IgG1, lambda) VH: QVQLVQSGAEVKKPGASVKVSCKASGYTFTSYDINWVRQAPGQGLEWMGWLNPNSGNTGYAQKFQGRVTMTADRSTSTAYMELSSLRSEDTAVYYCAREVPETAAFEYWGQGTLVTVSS VL: QSVLTQPPSVSGAPGQRVTISCTSDSSDIGAGLGVHWYQQLPGTAPKLLIEGYYNRPSGVPDRFSGSKSGTSASLTITGLLPEDEGDYYCQSYDGTLSALFGGGTKLTVLG
TL1A Binding Level (Late), RU: 64
//
binder: 320-221 (antibody, human IgG1, name in Kabat numbering, V domains shown, human IgG1, lambda) VH: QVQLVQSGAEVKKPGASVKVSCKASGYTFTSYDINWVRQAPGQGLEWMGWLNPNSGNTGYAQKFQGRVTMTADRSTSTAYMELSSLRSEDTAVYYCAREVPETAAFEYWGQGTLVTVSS VL: QSVLTQPPSVSGAPGQRVTISCTSSKSDIGAGLGVHWYQQLPGTAPKLLIEGYYNRPSGVPDRFSGSKSGTSASLTITGLLPEDEGDYYCQSYDGTLSALFGGGTKLTVLG
TL1A Binding Level (Late), RU: 89
